MST for assorted molecules
- Tested on: Plasmodium berghei
- assay-info: Antimalarial activity against trophozoite-induced Plasmodium berghei infected in mouse assessed as change in mean survival time at 10 mg/kg, sc single dose after 72 hrs of infection
- Type: functional
- cond: route subcutaneous
Entry rule: numbers only, all in days.

Take a look at these entries with their results.
INSERT INTO assay_data (molecule, measurement_name, value_observed) VALUES
  ('Nc1nc(N)c2cc(S(=O)(=O)c3ccccc3)ccc2n1', 'MST', 5.1),
  ('Nc1nc(N)c2cc([S+]([O-])c3ccccc3)ccc2n1 (stereo unspecified)', 'MST', 1.1),
  ('Nc1nc(N)c2cc(S(=O)(=O)c3ccc(Cl)c(Cl)c3)ccc2n1', 'MST', 10.3);

Kindly consider the entry below.
# input What value of MST has been reported for the following molecule? Nc1nc(N)c2cc([S+]([O-])c3ccc(Cl)cc3)ccc2n1 (stereo unspecified)
# output 7.3
